Value source: patent US20060183194A1

Biological target: T1, ErbB-4 receptor-Ig fusion (human, UniProt Q15303 26-651)
T1 construct: extracellular domain;range 224-C-terminus; also called ErbB-4-Ig; not shown: human IgG heavy chain constant region from His224 (hinge) on
T1 sequence: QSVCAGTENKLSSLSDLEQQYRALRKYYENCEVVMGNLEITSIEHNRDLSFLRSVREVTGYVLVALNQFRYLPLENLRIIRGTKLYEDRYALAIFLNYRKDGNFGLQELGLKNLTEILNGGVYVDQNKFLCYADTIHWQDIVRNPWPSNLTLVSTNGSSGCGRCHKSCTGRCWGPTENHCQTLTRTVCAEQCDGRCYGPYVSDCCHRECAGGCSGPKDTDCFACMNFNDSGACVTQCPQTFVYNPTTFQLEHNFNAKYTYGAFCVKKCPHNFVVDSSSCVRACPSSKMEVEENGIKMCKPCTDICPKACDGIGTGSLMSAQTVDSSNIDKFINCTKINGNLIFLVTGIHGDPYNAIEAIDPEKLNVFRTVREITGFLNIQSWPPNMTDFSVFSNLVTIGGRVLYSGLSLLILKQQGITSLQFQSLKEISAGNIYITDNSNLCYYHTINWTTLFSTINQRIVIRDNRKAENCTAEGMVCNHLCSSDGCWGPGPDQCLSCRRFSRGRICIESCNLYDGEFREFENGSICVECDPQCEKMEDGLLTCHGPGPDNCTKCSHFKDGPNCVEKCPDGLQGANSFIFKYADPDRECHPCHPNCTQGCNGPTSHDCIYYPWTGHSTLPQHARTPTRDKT
Assay: displacement of 125I-HRG from plate-bound ErbB-4-Ig
Ends that are not written are not given here.
The reader will find reported pEC50 values listed item by item below.
// returns pEC50 (minus log10 of molar concentration), number only

What value of measured pEC50 is listed for soluble HRG-β1 EGF variant A3 (ligand, also: three disulfide bonds, pairing not given here) WELVPCAEKEKTFCVNGGECFMVKDLSNPSRYLCKCPNEFTGDRCQNYVMAS ?
8.68

Reported pEC50, binder SHLVKCAEKEKTFCVNGGECYRVKTYGYLMCKCPNEFTGDRCQNYVIAS (ligand, also: three disulfide bonds, pairing not given here, also called D4+E2+M50I) [soluble HRG-β1 EGF combination variant HRG58] : ____
9.52

Field request: pEC50 | item: SHLVKCGEEREGFCVNGGECYRVKTYGYLMCKCPNEFTGDRCQHYVIAS (ligand, also: three disulfide bonds, pairing not given here, also called B3+D4+E2+I2) [soluble HRG-β1 EGF combination variant HRG73]
9.51

Quick one: pEC50 for soluble HRG-β1 EGF variant F1 (ligand, also: three disulfide bonds, pairing not given here) SHLVKCAEKEKTFCVNGGECFKVKDLSNPSRYLCKCPNEFTGDRCQNYVIAS ?
9.59

Which pEC50 value belongs to SHLVKCAEKEKTFCVNGGECFMVKDYGYLMCKCPNEFTGDRCQNYVMAS (ligand, also: three disulfide bonds, pairing not given here) [soluble HRG-β1 EGF variant E2] ?
8.62

Any idea what pEC50 was measured for soluble wild-type HRG-β1 EGF (HRG8, HRG-β1 177-228) (ligand, also called HRG8 (WT)) SHLVKCAEKEKTFCVNGGECFMVKDLSNPSRYLCKCPNEFTGDRCQNYVMAS ?
8.82
